testDescription: Example 7: food effect on pharmacokinetics of Compound 1 in healthy Japanese males
Type: in vivo
setupConditions: male, human, plasma, po, 400 mg, Fed, single oral dose 400 mg; Mean ± SD (n = 6)
outcomeMeasure: Cmax (ng/mL)
Answer in ng/mL, number only, no unit symbol.

// field: Cmax; key: COc1cc2c(cc1Cc1cccc(Cl)c1F)c(=O)c(C(=O)O)cn2[C@H](CO)C(C)C ; value = 903

---

testDescription: Example 3: pharmacokinetics of Compound 1 and RTV at a range of RTV doses
setupConditions: both, human, plasma, oral, Cmax, RTV in plasma; Compound 1 125 mg + 20 mg RTV QD; mean (CV %)
outcomeMeasure: Cmax (ng/mL)
Report as a plain number; the unit ng/mL is understood.

Cmax reading for CC(C)c1nc(CN(C)C(=O)N[C@H](C(=O)N[C@@H](Cc2ccccc2)C[C@H](O)[C@H](Cc2ccccc2)NC(=O)OCc2cncs2)C(C)C)cs1 [Ritonavir, reference compound] : 19.5
